The following are reported pIC50 results, target or system GST-ALK5 (TGF-beta receptor kinase) (Homo sapiens, UniProt P36897).
pIC50: −log10 of the molar value.

# count of solved cases: 4
>>> print(df.to_string())
                                   molecule  result
0  c1coc(-c2cc(-c3c[nH]c4cnccc34)c3cccnc3n2)c1 [Compound 101]  > 6.00
1  Cn1cc(-c2cc(-c3cc(Cl)ccc3F)nc3ncccc23)c2ccncc2c1=O [Compound 74]  > 6.00
2  Cc1ccc(-c2cc(-c3nccc4c(N)nccc34)c3cccnc3n2)o1 [Compound 84]  > 6.00
3  Nc1nccc2c(-c3cc(-c4ccccc4F)nc4ncccc34)cccc12 [Compound 9]  > 6.00

Next up:
Exercise: Please give the measured pIC50 for this molecule: COc1cnc(-c2cc(-c3ccccc3F)nc3ncccc23)c2ccncc12 [Compound 115]
Solution: > 6.00

---

- Tested on: TGF-beta-induced phosphorylation of Smad2 (Ser465/467) and Smad3 (Ser423/425) in Mv1-Lu cells
- experiment-summary: Inhibition of Smad2/3 phosphorylation in Mv1Lu cells (PathScan Phospho-Smad2 ELISA)
- Type: cell-based, mink Mustela vison
- assay-conditions: Neogale vison, Mv1-Lu cells, TGF-beta 1 5 ng/ml, Phospho-Smad2/3 ELISA, read-out: TβR activity (Example 51)
# IC50 values compiled below

For orientation, consider the following solved cases.
>>> df
                               entry_smiles      result
0  CCN(CC)CCOc1ccc(-c2cc(-c3cc(Cl)ccc3F)nc3ncccc23)c2ccncc12      < 1 µM
1  OCCOc1ccc(-c2cc(-c3ccccc3F)nc3ncccc23)c2ccncc12      < 1 µM
2  CCN(CC)CCn1cc(-c2cc(-c3cc(Cl)ccc3F)nc3ncccc23)c2ccncc2c1=O  1 to 10 µM
3  COc1ccc(-c2cc(-c3cc(F)ccc3F)nc3ncccc23)c2ccncc12      < 1 µM
4  [O-][n+]1ccc2c(-c3cc(-c4ccccc4F)nc4ncccc34)nccc2c1     > 10 µM
5  Cc1ccn(-c2cc(-c3c[nH]c4cnccc34)c3cccnc3n2)n1      < 1 µM
6  CCN(CC)CCNc1ccc(-c2cc(-c3cc(Cl)ccc3F)nc3ncccc23)c2ccncc12      < 1 µM

# evaluate next
Exercise: GET /values?readout=IC50&item= Fc1ccc(Cl)cc1-c1cc(-c2cnc(OCCN3CCCC3)c3cnccc23)c2cccnc2n1
Solution: < 1 µM

---

- Tested on: TGF-beta-induced phosphorylation of Smad2 (Ser465/467) and Smad3 (Ser423/425) in Mv1-Lu cells
- experiment-summary: Inhibition of Smad2/3 phosphorylation in Mv1Lu cells (PathScan Phospho-Smad2 ELISA)
- Format: cell-based, mink Mustela vison
- assay-conditions: Neogale vison, Mv1-Lu cells, TGF-beta 1 5 ng/ml, Phospho-Smad2/3 ELISA, read-out: TβR activity (Example 51)
measurement-kind: IC50

Exercise: Please report the recorded IC50 for Nc1ccc2c(-c3cccc4c(N)nccc34)cc(-c3ccccc3F)nc2n1 [Compound 117] .
Solution: < 1000 nM

Exercise: Please give the measured IC50 for this molecule: Fc1ccc(Cl)cc1-c1cc(-c2cccc3cnccc23)c2cccnc2n1 [Compound 2]
Solution: < 1000 nM

Values compiled from patent US8791113B2.
